# credit: patent US20250171432A1

Test system: HAP1 MTAP-deleted cell line
Test: Viability assay (CellTiter-Glo), HAP1 MTAP-deleted
Type: cell-based
Conditions: Homo sapiens, 168 h, HAP1 MTAP-deleted cells, 7 days
pIC50: −log10 of the molar value.
Provide the reported pIC50 of each item.

The following compounds have reported results that may help.
# COMPOUND, TARGET DESC, pIC50
data = [
    ("CCc1cc(NC(=O)C(=O)N2C[C@@H](C)CC[C@@H]2c2ccc3sc(CC4(C)CCN(C)CC4)nc3c2)cnc1N", "HAP1 MTAP-deleted cell line", "> 7.00"),
    ("COc1ncc(NC(=O)C(=O)N2C[C@@H](C)CC[C@@H]2c2ccc3sc([C@@H]4CN(C)CC4(C)C)nc3c2)cc1C(N)=O (single isomer, unassigned)", "HAP1 MTAP-deleted cell line", "> 7.00"),
    ("CCc1cc(NC(=O)C(=O)N2C[C@@H](C)CC[C@@H]2c2ccc3cn([C@H]4CCOC4)nc3c2)cnc1N (racemic)", "HAP1 MTAP-deleted cell line", "> 7.00"),
    ("CCc1cc(NC(=O)C(=O)N2C[C@@H](C)CC[C@@H]2c2cccc(OCC3CCCN3C)c2)cnc1N (relative stereo) [Compound 69]", "HAP1 MTAP-deleted cell line", "> 7.00"),
    ("COc1ncc(NC(=O)C(=O)N2C[C@@H](C)CC[C@@H]2c2ccc3sc([C@@H](C)N(C)C)nc3c2)cc1C(N)=O", "HAP1 MTAP-deleted cell line", "> 7.00"),
]

Give its pIC50 value. Item: COc1ncc(NC(=O)C(=O)N2C[C@@H](C)CC[C@@H]2c2ccc3sc([C@H]4CN(C)C(C)(C)C4)nc3c2)cc1C(N)=O
> 7.00

----------
Please provide measured pIC50 for the entries that follow.
Test system: HAP1 MTAP-deleted cell line
Assay: Viability assay (CellTiter-Glo), HAP1 MTAP-deleted
Format: cell-based
Conditions: Homo sapiens, 168 h, HAP1 MTAP-deleted cells, 7 days
pIC50: −log10 of the molar value.

Some compounds with recorded pIC50:
# COMPOUND, PROPERTY LABEL, OBS VALUE
data = [
    ("COc1ncc(NC(=O)C(=O)N2C[C@@H](C)CC[C@@H]2c2ccc3sc([C@@H](C)CN4CCCC4)nc3c2)cc1C(N)=O [Compound 62]", "pIC50", "> 7.00"),
    ("CCc1cc(NC(=O)C(=O)N2C[C@@H](C)CC[C@@H]2c2ccc3sc([C@@H]4C[C@@H](C)N(C)C4)nc3c2)cnc1N (mixture of isomers) [Compound 4]", "pIC50", "> 7.00"),
    ("CCc1cc(NC(=O)C(=O)N2C[C@@H](C)CC[C@@H]2c2ccc3sc([C@H]4C[C@H](N(C)C)C4)nc3c2)cnc1N (single isomer, unassigned) [Compound 43]", "pIC50", "> 7.00"),
]

Look up pIC50 for the entries below, preserving their order.
1. CCc1cc(NC(=O)C(=O)N2C[C@@H](C)CC[C@@H]2c2ccc3sc([C@H]4CN5CC[C@@H]4C5)nc3c2)cnc1N (racemic) [Compound 21]
2. CCc1cc(NC(=O)C(=O)N2C[C@@H](C)CC[C@@H]2c2ccc3sc([C@@H]4C[C@@H]5CC(F)(F)C[C@H](C4)N5C)nc3c2)cnc1N [Compound 91]
3. CCc1cc(NC(=O)C(=O)N2C[C@@H](C)CC[C@@H]2c2ccc3c(c2)OC2(CCN(C)CC2)C3)cnc1N [Compound 31]

1: > 7.00; 2: > 7.00; 3: 6.00 to 7.00

----------
Test system: HAP1 MTAP-deleted cell line
Assay: Viability assay (CellTiter-Glo), HAP1 MTAP-deleted
Type: cell-based
Details: Homo sapiens, 168 h, HAP1 MTAP-deleted cells, 7 days
pIC50: −log10 of the molar value.
PROPERTY LABEL: pIC50

Observe how each entry below is paired with its result.
# MOLECULE, PROPERTY LABEL, OBS VALUE
records = [
    ("CCc1cc(NC(=O)C(=O)N2C[C@@H](C)CC[C@@H]2c2ccc3sc([C@H]4C[C@@H](N(C)C)C4)nc3c2)cnc1N", "pIC50", "> 7.00"),
    ("COc1ncc(NC(=O)C(=O)N2C[C@@H](C)CC[C@@H]2c2ccc3sc(C4CCN(C)C4(C)C)nc3c2)cc1C(N)=O (mixture of isomers)", "pIC50", "> 7.00"),
    ("COc1ncc(NC(=O)C(=O)N2C[C@@H](C)CC[C@@H]2c2ccc3sc(C45CCN(CC4)C5)nc3c2)cc1C(N)=O", "pIC50", "> 7.00"),
    ("CCc1cc(NC(=O)C(=O)N2C[C@@H](C)CC[C@@H]2c2ccc3sc([C@H]4CN(C)C(C)(C)C4)nc3c2)cnc1N (single isomer, unassigned)", "pIC50", "> 7.00"),
]

--- query ---
What value of pIC50 has been reported for the following molecule? CCc1cc(NC(=O)C(=O)N2C[C@@H](C)CC[C@@H]2c2ccc3nn(CCN(C)C)cc3c2)cnc1N
> 7.00

----------
Provide the reported IC50 of each item.
Test system: HAP1 MTAP-deleted cell line
Experiment: Viability assay (CellTiter-Glo), HAP1 MTAP-deleted
Format: cell-based
Settings: Homo sapiens, 168 h, HAP1 MTAP-deleted cells, 7 days

The cases that follow already have their IC50 on record.
# MOLECULE, TARGET DESC, IC50
records = [
    ("CCc1cc(NC(=O)C(=O)N2C[C@@H](C)CC[C@@H]2c2ccc3sc(CC(C)(C)N(C)C)nc3c2)cnc1N [Compound 89]", "HAP1 MTAP-deleted cell line", "< 100 nM"),
    ("COc1ncc(NC(=O)C(=O)N2C[C@@H](C)CC[C@@H]2c2ccc3sc(CC4CCN(C)CC4)nc3c2)cc1C(N)=O [Compound 20]", "HAP1 MTAP-deleted cell line", "< 100 nM"),
    ("CCc1cc(NC(=O)C(=O)N2C[C@@H](C)CC[C@@H]2c2ccc3sc([C@H]4C[C@@H]5CN(C)C[C@@H]5C4)nc3c2)cnc1N (single isomer, unassigned) [Compound 33]", "HAP1 MTAP-deleted cell line", "< 100 nM"),
]

Dear colleague, could you send me IC50 for each of the items below? Thanks.
1. COc1ncc(NC(=O)C(=O)N2C[C@@H](C)CC[C@@H]2c2ccc3sc(C4=CCN(C)CCC4)nc3c2)cc1C(N)=O [Compound 46]
2. CCc1cc(NC(=O)C(=O)N2C[C@H](C)CC[C@@H]2c2ccc3sc([C@H]4C[C@H](N(C)C)C4)nc3c2)cnc1N [Compound 119]
3. COc1ncc(NC(=O)C(=O)N2C[C@@H](C)CC[C@@H]2c2ccc3sc(C45CC(N(C)C)(C4)C5)nc3c2)cc1C(N)=O [Compound 86]

["< 100 nM", "> 1000 nM", "< 100 nM"]

----------
Kindly state IC50 for each of the entries shown.
System: HAP1 MTAP-deleted cell line
Assay: Viability assay (CellTiter-Glo), HAP1 MTAP-deleted
Type: cell-based
Conditions: Homo sapiens, 168 h, HAP1 MTAP-deleted cells, 7 days

Use the examples below as a reference point.
# MOLECULE, OBS VALUE
data = [
    ("CCc1cc(NC(=O)C(=O)N2C[C@@H](C)CC[C@@H]2c2ccc3sc(CC(C)N4CCCC4)nc3c2)cnc1N (mixture of isomers)", "< 100 nM"),
    ("CCc1cc(NC(=O)C(=O)N2C[C@@H](C)CC[C@@H]2c2ccc3cccnc3c2)cnc1N", "100 to 1000 nM"),
    ("CCc1cc(NC(=O)C(=O)N2C[C@@H](C)CC[C@@H]2c2ccc3cc(C#N)cnc3c2)cnc1N", "100 to 1000 nM"),
    ("CCc1cc(NC(=O)C(=O)N2C[C@@H](C)CC[C@@H]2c2ccc3cn(C4CCN(C)C(C)(C)C4)nc3c2)cnc1N (single isomer, unassigned) [Compound 48]", "< 100 nM"),
    ("CCc1cc(NC(=O)C(=O)N2C[C@@H](C)CC[C@@H]2c2ccc3sc(C4CN(C)C(C)(C)C4)nc3c2)cnc1N (mixture of isomers)", "< 100 nM"),
    ("COc1ncc(NC(=O)C(=O)N2C[C@@H](C)CC[C@@H]2c2ccc3sc(C4=CCN(C)CC4)nc3c2)cc1C(N)=O", "< 100 nM"),
]

Could you now look at the following molecule, please?
Endpoint output: IC50 of COc1ncc(NC(=O)C(=O)N2C[C@@H](C)CC[C@@H]2c2ccc3cn(C4CCOCC4)nc3c2)cc1C(N)=O . Value?
100 to 1000 nM

----------
Answer each item with its documented pIC50.
Test system: HAP1 MTAP-deleted cell line
Test: Viability assay (CellTiter-Glo), HAP1 MTAP-deleted
Format: cell-based
Conditions: Homo sapiens, 168 h, HAP1 MTAP-deleted cells, 7 days
pIC50: −log10 of the molar value.

# MOLECULE, PROPERTY LABEL, OBS VALUE
measured = [
    ("CCc1cc(NC(=O)C(=O)N2C[C@@H](C)CC[C@@H]2c2ccc3sc([C@H]4CN(C)CC(C)(C)C4)nc3c2)cnc1N (single isomer, unassigned)", "pIC50", "> 7.00"),
    ("COc1ncc(NC(=O)C(=O)N2C[C@@H](C)CC[C@@H]2c2ccc3cn([C@H]4CCN(C)C4)nc3c2)cc1C(N)=O", "pIC50", "> 7.00"),
    ("COc1ncc(NC(=O)C(=O)N2C[C@@H](C)CC[C@@H]2c2cccc(OC[C@H](C)N(C)C)c2)cc1C(N)=O", "pIC50", "> 7.00"),
    ("CCc1cc(NC(=O)C(=O)N2C[C@@H](C)CC[C@@H]2c2ccc3cn([C@@H]4CCN(C)C4)nc3c2)cnc1N", "pIC50", "> 7.00"),
    ("C[C@H]1CC[C@H](c2ccc3scnc3c2)N(C(=O)C(=O)Nc2cnc(N)c(I)c2)C1", "pIC50", "6.00 to 7.00"),
]

Parameters: items (list). Returns: pIC50 for each item.
1. CCc1cc(NC(=O)C(=O)N2C[C@@H](C)CC[C@@H]2c2ccc3sc([C@@H]4CCN(C)CC4(C)C)nc3c2)cnc1N
2. COc1ncc(NC(=O)C(=O)N2C[C@@H](C)CC[C@@H]2c2cccc(OC[C@@H]3CCCN3C)c2)cc1C(N)=O

["> 7.00", "6.00 to 7.00"]

Hi! Can you tell me pIC50 for each of these molecules?
1. COc1ncc(NC(=O)C(=O)N2C[C@@H](C)CC[C@@H]2c2ccc3sc(C4CCNCC4)nc3c2)cc1C(N)=O
2. CCc1cc(NC(=O)C(=O)N2C[C@@H](C)CC[C@@H]2c2ccc3ccc(C4CCN(C)CC4)cc3c2)cnc1N
3. CCc1cc(NC(=O)C(=O)N2C[C@@H](C)CC[C@@H]2c2ccc(F)c(OCCN(C)C)c2)cnc1N
4. CCc1cc(NC(=O)C(=O)N2C[C@@H](C)CC[C@@H]2c2ccc3sc([C@@H]4C[C@@H](C)CN(C)C4)nc3c2)cnc1N (relative stereo) [Compound 23]
5. CCc1cc(NC(=O)C(=O)N2C[C@@H](C)CC[C@@H]2c2ccc3cn(C4CN(C)CC(C)(C)C4)nc3c2)cnc1N (single isomer, unassigned)
6. CCc1cc(NC(=O)C(=O)N2C[C@@H](C)CC[C@@H]2c2ccc3sc([C@@H]4CN(C)CC(C)(C)C4)nc3c2)cnc1N (single isomer, unassigned)

6.00 to 7.00
> 7.00
> 7.00
> 7.00
> 7.00
> 7.00
